B1: tRNA (parent)
chain: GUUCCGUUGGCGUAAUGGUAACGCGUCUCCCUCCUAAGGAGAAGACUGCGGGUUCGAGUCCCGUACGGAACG

variants of: B1; assay: yeast fitness relative to wild type (ratio to wild type); higher = fitter; tRNA-Arg(CCU), competitive growth, 37 C, YPD
This sample holds only a part of the variants without activity.
Endpoint: yeast fitness

{"Mutation": "U7C G58C C66A", "Val": 0.584}
{"Mutation": "C22G A70G", "Val": 0.86}
{"Mutation": "U7G A14U C30A", "Val": "≤ 0.5"}
{"Mutation": "G25C A57G", "Val": 0.892}
{"Mutation": "C24G A37U U47A", "Val": "≤ 0.5"}
{"Mutation": "G41A U53G U59A C62G", "Val": "≤ 0.5"}
{"Mutation": "C24U A57G", "Val": 0.809}
{"Mutation": "A14C A15C A21U A57G", "Val": "≤ 0.5"}
{"Mutation": "G52C G67A", "Val": 0.709}
{"Mutation": "G9A C11U C29A U53G", "Val": "≤ 0.5"}
{"Mutation": "A20G G68A", "Val": 0.917}
{"Mutation": "C5G G39A G52A A70G", "Val": "≤ 0.5"}
{"Mutation": "G39C G56C A57G", "Val": "≤ 0.5"}
{"Mutation": "U28C G39C", "Val": 0.578}
{"Mutation": "U8G G10C U13G C55G U59A", "Val": "≤ 0.5"}
{"Mutation": "C11A U13C G23C U32G C34A", "Val": "≤ 0.5"}
{"Mutation": "U8C A20C G51A", "Val": "≤ 0.5"}
{"Mutation": "C34A C49A U59G C66U", "Val": "≤ 0.5"}
{"Mutation": "U2G U8C C27U C46U", "Val": 0.789}
{"Mutation": "G63A G67A A69G", "Val": "≤ 0.5"}
{"Mutation": "U2A A70G", "Val": 0.979}
{"Mutation": "C27G A65U A70G", "Val": 0.575}
